- Tested on: U-251
- ASSAY DETAILS: NCI tumour cell line growth inhibition, 48 h
Calls of active or inactive are those of the source. Rule as the data show it: active = GI50 up to about 1.1 µM and inactive = higher.
Respond using exactly one of the listed classes: active, inactive

Q: Outcome logged for CCCN(C(=O)c1ccccc1)C(C#N)c1ccc(C(C#N)N(CCC)C(=O)c2ccccc2)cc1 (configuration not stated) in this assay:
A: inactive

Q: Would you mind doing CC[C@H]1C[C@@H](O)[C@@H]2[C@H](O)[C@H](O)CN2C1 as well?
A: inactive

Q: Now try CC1(C)Oc2ccc3c(=O)cc(-c4ccccc4)oc3c2C1C(=O)O (configuration not stated) .
A: inactive

Q: Would you kindly repeat that for O=C1/C(=C/c2ccccc2)CCc2ccccc21 ?
A: inactive

Q: Please do the same for CN(CCNC(=O)c1cc(-c2ccccc2)nc2ccccc12)CCNC(=O)c1cc(-c2ccccc2)nc2ccccc12 as well.
A: inactive

Q: Also CN(C)CC1CCC(CN(C)C)C(=O)C1=O (configuration not stated) , if possible.
A: inactive

Q: Now try NC(=O)CC(N)c1nnn[nH]1 (configuration not stated) .
A: inactive

Q: And for COc1ccc2[nH]c3c(O)nncc3c2c1 ?
A: inactive
